Source listed as BindingDB's records for doi:10.1016/j.ejmech.2020.113121.

test: Inhibition of recombinant human Sphk2 expressed in yeast strain KYA1 assessed as increase in yeast growth measured after 24 hrs
Measurement Label: pEC50
Answers are plain numbers, as −log10 of the molar value.

query: Answer with the recorded pEC50 of CCCCCCCCCn1ccc2cc(-c3noc([C@@H]4CCCN4C(=N)N)n3)ccc21 only.
result: 6.77
